- SYSTEM TESTED: FLK-1 receptor (Mus musculus, UniProt P35918)
- Construct: expressed in transfected cells; host or cells: NIH3T3 C7#3
- Sequence (P35918 20-1345): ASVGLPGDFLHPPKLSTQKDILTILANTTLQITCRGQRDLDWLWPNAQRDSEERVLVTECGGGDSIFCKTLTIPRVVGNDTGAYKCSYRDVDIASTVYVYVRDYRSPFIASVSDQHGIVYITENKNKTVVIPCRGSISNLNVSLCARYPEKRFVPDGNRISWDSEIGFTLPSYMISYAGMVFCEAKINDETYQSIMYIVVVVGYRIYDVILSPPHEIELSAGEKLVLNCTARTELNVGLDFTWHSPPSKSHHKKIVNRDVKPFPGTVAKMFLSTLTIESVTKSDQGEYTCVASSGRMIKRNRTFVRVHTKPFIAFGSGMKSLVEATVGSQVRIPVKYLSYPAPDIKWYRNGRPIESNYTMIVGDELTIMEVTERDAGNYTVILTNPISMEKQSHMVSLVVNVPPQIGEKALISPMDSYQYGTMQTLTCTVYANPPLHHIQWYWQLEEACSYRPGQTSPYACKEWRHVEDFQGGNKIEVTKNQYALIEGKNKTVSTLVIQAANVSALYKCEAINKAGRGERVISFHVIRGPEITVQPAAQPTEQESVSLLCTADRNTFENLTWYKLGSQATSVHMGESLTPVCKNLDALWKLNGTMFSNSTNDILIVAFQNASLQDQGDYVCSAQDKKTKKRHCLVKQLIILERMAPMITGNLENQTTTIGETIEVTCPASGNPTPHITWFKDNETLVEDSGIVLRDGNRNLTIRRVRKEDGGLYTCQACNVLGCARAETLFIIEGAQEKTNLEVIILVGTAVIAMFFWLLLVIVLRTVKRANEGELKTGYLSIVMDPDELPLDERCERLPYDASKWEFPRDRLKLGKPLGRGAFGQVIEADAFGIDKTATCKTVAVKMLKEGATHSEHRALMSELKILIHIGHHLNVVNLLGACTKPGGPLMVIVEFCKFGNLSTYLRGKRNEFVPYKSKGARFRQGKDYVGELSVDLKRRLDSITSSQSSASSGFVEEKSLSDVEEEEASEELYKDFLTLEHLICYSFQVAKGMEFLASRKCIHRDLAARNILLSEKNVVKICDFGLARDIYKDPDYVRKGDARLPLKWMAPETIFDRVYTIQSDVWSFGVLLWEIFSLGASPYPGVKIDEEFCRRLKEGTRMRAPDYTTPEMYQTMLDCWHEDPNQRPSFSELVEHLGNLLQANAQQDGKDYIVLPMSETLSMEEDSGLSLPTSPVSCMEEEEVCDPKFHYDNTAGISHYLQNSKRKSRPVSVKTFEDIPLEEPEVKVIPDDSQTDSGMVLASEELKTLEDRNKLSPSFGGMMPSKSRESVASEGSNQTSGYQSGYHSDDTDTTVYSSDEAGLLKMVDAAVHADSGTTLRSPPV
- ASSAY TEXT: FLK-1 ELISA (kinase activity of the FLK-1 receptor in FLK-1/NIH3T3 cells, VEGF stimulated)
- Format: cell-based
PROPERTY NAME: Fik Kinase %Inhibition (%)

SUBSTANCE SMILES: CNS(=O)(=O)c1ccc2c(c1)C(=Cc1sccc1Br)C(=O)N2
PROPERTY NAME: Fik Kinase %Inhibition
EXPERIMENTAL VALUE: -3.6
--
SUBSTANCE SMILES: O=C1Nc2ccc(CCCl)cc2C1=Cc1ccc(N2CCCC2)cc1
PROPERTY NAME: Fik Kinase %Inhibition
EXPERIMENTAL VALUE: -9.1
--
SUBSTANCE SMILES: O=C1Nc2ccc(F)cc2C1=C1C(=O)Nc2ccc(CCCl)cc21
PROPERTY NAME: Fik Kinase %Inhibition
EXPERIMENTAL VALUE: 2.9
--
SUBSTANCE SMILES: O=C1Nc2c(Br)cc(Br)cc2C1=Cc1ccco1
PROPERTY NAME: Fik Kinase %Inhibition
EXPERIMENTAL VALUE: 23.4
--
SUBSTANCE SMILES: Cc1c(Br)ccc2c1C(=Cc1ccc(O)c(C(C)(C)C)c1)C(=O)N2
PROPERTY NAME: Fik Kinase %Inhibition
EXPERIMENTAL VALUE: 17.5
--
SUBSTANCE SMILES: Cc1c(O)ccc(C=C2C(=O)Nc3ccc(S(=O)(=O)Nc4ccc(C(F)(F)F)cc4)cc32)c1O
PROPERTY NAME: Fik Kinase %Inhibition
EXPERIMENTAL VALUE: 0.9
--
SUBSTANCE SMILES: CCOc1cccc(C=C2C(=O)Nc3ccc(Br)c(C)c32)c1O
PROPERTY NAME: Fik Kinase %Inhibition
EXPERIMENTAL VALUE: -3.9
--
SUBSTANCE SMILES: O=C1Nc2ccc(CCCl)cc2C1=Cc1sccc1Br
PROPERTY NAME: Fik Kinase %Inhibition
EXPERIMENTAL VALUE: -3.7
--
SUBSTANCE SMILES: CNS(=O)(=O)c1ccc2c(c1)C(=Cc1coc3cc(C)c(C)cc3c1=O)C(=O)N2
PROPERTY NAME: Fik Kinase %Inhibition
EXPERIMENTAL VALUE: 17.3

----------
- SYSTEM TESTED: PDGF-R (Homo sapiens, UniProt P09619)
- Sequence (P09619 33-1106, species assumed): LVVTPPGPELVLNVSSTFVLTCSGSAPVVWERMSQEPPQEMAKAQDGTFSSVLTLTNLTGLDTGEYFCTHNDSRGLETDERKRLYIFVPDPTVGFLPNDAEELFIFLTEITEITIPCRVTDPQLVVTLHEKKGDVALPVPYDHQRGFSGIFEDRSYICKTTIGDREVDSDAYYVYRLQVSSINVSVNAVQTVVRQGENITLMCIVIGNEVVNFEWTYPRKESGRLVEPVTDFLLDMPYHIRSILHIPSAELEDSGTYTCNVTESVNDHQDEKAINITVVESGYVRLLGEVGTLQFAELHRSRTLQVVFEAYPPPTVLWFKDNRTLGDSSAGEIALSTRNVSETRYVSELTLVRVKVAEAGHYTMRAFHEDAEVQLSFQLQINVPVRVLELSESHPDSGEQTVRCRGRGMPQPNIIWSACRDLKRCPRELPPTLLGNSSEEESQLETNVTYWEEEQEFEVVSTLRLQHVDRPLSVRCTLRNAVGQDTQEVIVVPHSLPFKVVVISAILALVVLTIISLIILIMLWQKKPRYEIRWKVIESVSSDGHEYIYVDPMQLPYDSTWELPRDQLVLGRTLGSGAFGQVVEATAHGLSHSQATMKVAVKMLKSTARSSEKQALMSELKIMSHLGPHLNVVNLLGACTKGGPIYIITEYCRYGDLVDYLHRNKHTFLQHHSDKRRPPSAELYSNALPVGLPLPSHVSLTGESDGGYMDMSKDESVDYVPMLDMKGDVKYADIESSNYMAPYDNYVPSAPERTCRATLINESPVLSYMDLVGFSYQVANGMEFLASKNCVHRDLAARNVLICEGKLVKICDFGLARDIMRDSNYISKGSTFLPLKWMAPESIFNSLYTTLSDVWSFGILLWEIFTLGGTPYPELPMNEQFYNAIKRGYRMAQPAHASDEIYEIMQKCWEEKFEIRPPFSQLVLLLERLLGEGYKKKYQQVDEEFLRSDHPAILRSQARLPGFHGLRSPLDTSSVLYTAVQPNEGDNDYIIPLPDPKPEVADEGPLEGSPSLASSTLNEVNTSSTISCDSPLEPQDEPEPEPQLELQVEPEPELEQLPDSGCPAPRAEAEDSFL
- ASSAY TEXT: PDGF-R ELISA
- Assay type: cell-based
- From the text: A PDGF-R ELISA is described in International Patent Publication No. WO 96/40116, published December 19, 1996 by Tang et al.
Recorded measurements of PDGF Kinase %Inhibition, one per entry
PROPERTY NAME: PDGF Kinase %Inhibition

COMPOUND: Cc1ccc2occ(C=C3C(=O)Nc4ccc(S(=O)(=O)Nc5ccc(C(F)(F)F)cc5)cc43)c(=O)c2c1 [10731/E06]
EXPERIMENTAL VALUE: -12.0%

COMPOUND: O=C1Nc2c(Br)cc(Br)cc2C1=Cc1cc(Cl)ccc1O [10734/A04]
EXPERIMENTAL VALUE: 11.7%

COMPOUND: COc1ccc2ccccc2c1C=C1C(=O)Nc2c(Br)cc(Br)cc21 [10729/A02]
EXPERIMENTAL VALUE: -25.7%

COMPOUND: Cc1c(Br)ccc2c1C(=Cc1cc3c4c(c1O)CCCN4CCC3)C(=O)N2 [10724/C05]
EXPERIMENTAL VALUE: 20.3%

COMPOUND: O=C1Nc2c(Br)cc(Br)cc2C1=Cc1coc2ccc([N+](=O)[O-])cc2c1=O [10731/A07]
EXPERIMENTAL VALUE: 4.6%

COMPOUND: O=C1Nc2ccc(CCCl)cc2C1=Cc1ccccc1Sc1ccc(Cl)cc1 [10727/G05]
EXPERIMENTAL VALUE: -2.3%

COMPOUND: O=C1Nc2ccc(S(=O)(=O)Nc3ccc(C(F)(F)F)cc3)cc2C1=CC1C=CCCC1 (stereo not drawn) [10729/E11]
EXPERIMENTAL VALUE: 22.4%

COMPOUND: CC(C)c1cc(C=C2C(=O)Nc3ccc(CCCl)cc32)cc(C(C)C)c1O [10724/G06]
EXPERIMENTAL VALUE: -6.9%

COMPOUND: Cc1c(Br)ccc2c1C(=Cc1cc(Cl)ccc1O)C(=O)N2 [10734/C04]
EXPERIMENTAL VALUE: 24.5%

----------
- SYSTEM TESTED: PDGF-R (Homo sapiens)
- ASSAY TEXT: PDGF-R ELISA
- Assay type: cell-based
PROPERTY NAME: PDGF Kinase %Inhibition (%)

SUBSTANCE SMILES: COc1c(C(C)(C)C)cc(C=C2C(=O)Nc3ccc(S(=O)(=O)N4CCOCC4)cc32)cc1C(C)(C)C
EXPERIMENTAL VALUE: -28.7
//
SUBSTANCE SMILES: CC(C)(C)c1cc(C=C2C(=O)Nc3ccc(S(=O)(=O)Nc4ccc(C(F)(F)F)cc4)cc32)cc(Cl)c1OCc1ccccc1
EXPERIMENTAL VALUE: 35.6
//
SUBSTANCE SMILES: COc1cccc(C=C2C(=O)Nc3ccc(CCCl)cc32)c1OC
EXPERIMENTAL VALUE: 15.9
//
SUBSTANCE SMILES: Cc1cc(C=C2C(=O)Nc3ccc(I)cc32)cc(C(C)(C)C)c1O
EXPERIMENTAL VALUE: 39.1
//
SUBSTANCE SMILES: Cc1cn(C)cc1C=C1C(=O)Nc2ccc(S(=O)(=O)Nc3ccc(C(F)(F)F)cc3)cc21
EXPERIMENTAL VALUE: 41.7
//
SUBSTANCE SMILES: CC(C)(C)c1cc(C=C2C(=O)Nc3ccc(CCCl)cc32)ccc1OCc1ccccc1
EXPERIMENTAL VALUE: 0.2
//
SUBSTANCE SMILES: O=C1Nc2ccc(S(=O)(=O)Nc3ccc(C(F)(F)F)cc3)cc2C1=Cc1c(Br)cnn1-c1ccc(Cl)cc1
EXPERIMENTAL VALUE: 28.4
//
SUBSTANCE SMILES: O=C1Nc2c(Br)cc(Br)cc2C1=Cc1ccc(Br)s1
EXPERIMENTAL VALUE: 5.5

----------
Recorded measurements of PDGF Kinase %Inhibition, one per entry
- SYSTEM TESTED: PDGF-R (Homo sapiens, UniProt P09619)
- ASSAY TEXT: PDGF-R ELISA
- Type: cell-based
PROPERTY NAME: PDGF Kinase %Inhibition (%)

MOLECULE: COC1CC(C=C2C(=O)Nc3ccc(S(=O)(=O)N4CCOCC4)cc32)C(OC)O1 (centres unmarked) [10730/F10]
PROPERTY NAME: PDGF Kinase %Inhibition
EXPERIMENTAL VALUE: 1.9

MOLECULE: O=C1Nc2c(Br)cc(Br)cc2C1=Cc1ccc(O)c([N+](=O)[O-])c1 [10724/A03]
PROPERTY NAME: PDGF Kinase %Inhibition
EXPERIMENTAL VALUE: 0.1

MOLECULE: Cc1c(Br)cc(Br)c2c1C(=Cc1c(Br)cnn1-c1ccc(Cl)cc1)C(=O)N2 [10725/A10]
PROPERTY NAME: PDGF Kinase %Inhibition
EXPERIMENTAL VALUE: 33.7

MOLECULE: COc1ccc2ccccc2c1C=C1C(=O)Nc2ccc(Br)c(C)c21 [10729/C02]
PROPERTY NAME: PDGF Kinase %Inhibition
EXPERIMENTAL VALUE: 9.1

MOLECULE: COc1ccc2ccccc2c1C=C1C(=O)Nc2ccc(I)cc21 [10729/B02]
PROPERTY NAME: PDGF Kinase %Inhibition
EXPERIMENTAL VALUE: -10.2

MOLECULE: COc1c(C(C)(C)C)cc(C=C2C(=O)Nc3ccc(S(=O)(=O)Nc4ccc(C(F)(F)F)cc4)cc32)cc1C(C)(C)C [10733/E04]
PROPERTY NAME: PDGF Kinase %Inhibition
EXPERIMENTAL VALUE: -13.7

MOLECULE: O=C1Nc2ccc(I)cc2C1=Cc1ccc(Br)s1 [10734/B11]
PROPERTY NAME: PDGF Kinase %Inhibition
EXPERIMENTAL VALUE: -5.5

MOLECULE: CNS(=O)(=O)c1ccc2c(c1)C(=Cc1cccc(F)c1O)C(=O)N2 [10734/D08]
PROPERTY NAME: PDGF Kinase %Inhibition
EXPERIMENTAL VALUE: 2.0

MOLECULE: Cc1c(Br)ccc2c1C(=Cc1cc(Br)c(OCc3ccccc3)c(C(C)(C)C)c1)C(=O)N2 [10732/C08]
PROPERTY NAME: PDGF Kinase %Inhibition
EXPERIMENTAL VALUE: 17.9

MOLECULE: CNS(=O)(=O)c1ccc2c(c1)C(=Cc1ccc([N+](=O)[O-])cc1)C(=O)N2 [10734/D06]
PROPERTY NAME: PDGF Kinase %Inhibition
EXPERIMENTAL VALUE: -9.1

MOLECULE: O=C1Nc2ccc(I)cc2C1=Cc1c(F)cccc1C(F)(F)F [10728/B09]
PROPERTY NAME: PDGF Kinase %Inhibition
EXPERIMENTAL VALUE: -0.4

MOLECULE: CC(C)c1cc(C=C2C(=O)Nc3ccc(S(=O)(=O)N4CCOCC4)cc32)cc(C(C)C)c1Oc1ccccc1 [10732/F04]
PROPERTY NAME: PDGF Kinase %Inhibition
EXPERIMENTAL VALUE: 23.5

MOLECULE: CNS(=O)(=O)c1ccc2c(c1)C(=Cc1cc([N+](=O)[O-])c(O)c(C(C)(C)C)c1)C(=O)N2 [10722/D02]
PROPERTY NAME: PDGF Kinase %Inhibition
EXPERIMENTAL VALUE: 31.8

MOLECULE: O=C1Nc2ccc(S(=O)(=O)Nc3ccc(C(F)(F)F)cc3)cc2C1=Cc1ccccc1Sc1ccc(Cl)cc1 [10727/E05]
PROPERTY NAME: PDGF Kinase %Inhibition
EXPERIMENTAL VALUE: -7.4

MOLECULE: O=C1Nc2ccc(CCCl)cc2C1=Cc1cccc(Oc2ccccc2)c1 [10729/G06]
PROPERTY NAME: PDGF Kinase %Inhibition
EXPERIMENTAL VALUE: 11.8

MOLECULE: COc1c(O)ccc(C=C2C(=O)Nc3ccc(Br)c(C)c32)c1[N+](=O)[O-] [10733/C11]
PROPERTY NAME: PDGF Kinase %Inhibition
EXPERIMENTAL VALUE: 62.2

MOLECULE: COc1ccc2[nH]cc(C=C3C(=O)Nc4ccc(Br)c(C)c43)c2c1 [10731/C09]
PROPERTY NAME: PDGF Kinase %Inhibition
EXPERIMENTAL VALUE: -6.3
